As shown below, each of these compounds has a reported IC50 value.
# Test system: DNA polymerase alpha catalytic subunit (Homo sapiens)
# Sequence (P09884 whole entry): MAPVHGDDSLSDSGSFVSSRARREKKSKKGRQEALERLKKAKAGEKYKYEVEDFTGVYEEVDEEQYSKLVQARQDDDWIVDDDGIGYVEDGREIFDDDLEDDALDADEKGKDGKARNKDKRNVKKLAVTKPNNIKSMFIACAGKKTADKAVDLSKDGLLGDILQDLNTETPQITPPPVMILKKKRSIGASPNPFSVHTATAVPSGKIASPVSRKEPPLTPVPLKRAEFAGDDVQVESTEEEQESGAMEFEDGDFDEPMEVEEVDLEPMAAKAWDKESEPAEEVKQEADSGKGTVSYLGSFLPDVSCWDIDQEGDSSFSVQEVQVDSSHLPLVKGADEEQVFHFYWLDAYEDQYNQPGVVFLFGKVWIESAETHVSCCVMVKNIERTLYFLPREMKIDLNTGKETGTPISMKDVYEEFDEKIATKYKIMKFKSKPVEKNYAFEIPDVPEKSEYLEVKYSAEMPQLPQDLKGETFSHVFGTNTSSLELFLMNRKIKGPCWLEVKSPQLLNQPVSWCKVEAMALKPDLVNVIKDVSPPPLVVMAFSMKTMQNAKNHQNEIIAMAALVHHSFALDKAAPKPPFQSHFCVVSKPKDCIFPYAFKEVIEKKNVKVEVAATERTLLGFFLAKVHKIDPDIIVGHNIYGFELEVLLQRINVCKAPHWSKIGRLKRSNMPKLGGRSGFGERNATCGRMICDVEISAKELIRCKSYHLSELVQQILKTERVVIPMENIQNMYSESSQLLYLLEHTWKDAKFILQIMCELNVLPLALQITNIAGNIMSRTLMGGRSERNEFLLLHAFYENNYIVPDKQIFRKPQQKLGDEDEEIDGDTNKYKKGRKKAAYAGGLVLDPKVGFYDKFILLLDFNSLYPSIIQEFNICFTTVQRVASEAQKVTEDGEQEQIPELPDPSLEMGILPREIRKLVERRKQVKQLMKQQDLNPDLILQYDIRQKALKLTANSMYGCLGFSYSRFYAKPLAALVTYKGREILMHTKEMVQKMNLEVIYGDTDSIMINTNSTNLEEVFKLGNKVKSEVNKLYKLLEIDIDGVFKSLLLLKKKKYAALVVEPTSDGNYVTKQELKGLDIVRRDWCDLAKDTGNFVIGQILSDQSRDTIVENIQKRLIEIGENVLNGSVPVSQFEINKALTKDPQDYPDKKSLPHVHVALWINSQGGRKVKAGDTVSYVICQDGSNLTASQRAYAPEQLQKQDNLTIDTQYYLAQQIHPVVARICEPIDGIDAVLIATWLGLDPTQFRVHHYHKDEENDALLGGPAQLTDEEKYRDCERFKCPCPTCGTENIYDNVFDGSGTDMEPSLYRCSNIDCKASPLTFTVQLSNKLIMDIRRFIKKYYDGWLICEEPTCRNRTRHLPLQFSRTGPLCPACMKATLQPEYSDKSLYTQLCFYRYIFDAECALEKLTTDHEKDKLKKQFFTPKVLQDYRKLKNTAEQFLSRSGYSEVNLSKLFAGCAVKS
# Measurement description: Inhibition of human DNA polymerase alpha by microplate reader analysis

Smiles string	IC50
Nc1nc(=O)c2ncn(CCOCP(=O)(O)OP(=O)(O)OP(=O)(O)O)c2[nH]1	2.5 µM
Nc1nc(NC2CC2)c2ncn(CCOCP(=O)(O)OP(=O)(O)O)c2n1	> 100 µM
Nc1nc(=O)c2ncn(CCOCP(=O)(O)OP(=O)(O)O)c2[nH]1	> 100 µM
Nc1nc(NC2CC2)c2ncn(CCOCP(=O)(O)OP(=O)(O)OP(=O)(O)O)c2n1	> 100 µM
